System: PXR:RXRa (NR concentration 270 nM, RXRa partner concentration 90 nM)
Method Description: PBM binding z-score (relative to random genomic background probes); higher = stronger binding; sequences stand for … in GC…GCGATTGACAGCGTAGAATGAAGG
Answer not met if PBM binding z-score is under 0.6, and met if it is 0.6 or more.

Query: PBM binding z-score >= 0.6 for `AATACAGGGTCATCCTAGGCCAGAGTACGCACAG` ?
Result: met

Query: Tell me whether PBM binding z-score is at least 0.6 here: `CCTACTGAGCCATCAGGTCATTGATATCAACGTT`
Result: met

Query: For this sequence, is measured PBM binding z-score 0.6 or higher? `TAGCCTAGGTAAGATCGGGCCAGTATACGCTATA`
Result: not met

Query: hey, is PBM binding z-score for this one >= 0.6? `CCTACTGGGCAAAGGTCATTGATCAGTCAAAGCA`
Result: met

Query: Kindly determine if PBM binding z-score recorded for `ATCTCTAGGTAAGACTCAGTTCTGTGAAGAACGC` is above or exactly 0.6.
Result: not met
